test name: blockers of serum C3 deposition on LPS – biochemical, ELISA, human serum, orthogonally pooled compounds, primary screen (AID 1235);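 further: 0% = serum in Mg-EGTA without compound and 100% = EDTA serum blank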
cond: Human serum alternative complement pathway, LPS-coated ELISA, tested in compound mixtures, at 5 µM
Out of some 62,000 compounds screened, about 50 (0.08%) were called active.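 How the source made its calls: active means inhibition above 30% in each of the two pooled mixtures holding the compound, so the lower value exceeds 30%; inactive means the rest.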 Only a selection was taken, and actives are over-represented in it overall.
Labels: T (active), F (inactive)

compound: COc1cccc(Oc2ccc(N)cc2)c1
assigned category: F
//
compound: Cc1ccc(-c2nnn(CC(=O)N(CCO)C(C(=O)NC(C)(C)C)c3ccncc3)n2)cc1 (configuration not stated)
assigned category: F
//
compound: COc1ccc(-n2nnc3c(=O)n(CC(=O)N4CCC(Cc5ccccc5)CC4)cnc32)cc1
assigned category: F
//
compound: Cc1onc(-c2ccccc2Cl)c1C(=O)NCCn1ccc2ccccc21
assigned category: F
//
compound: CSCCC(NC(=O)C1CCC(C)CC1)C(=O)NCc1ccco1 (configuration not stated)
assigned category: F
//
compound: CC(C(=O)O)N1C(=O)c2cccc3cccc1c23 (configuration not stated)
assigned category: F
//
compound: CCOC(=O)c1[nH]c2ccc(C)cc2c1N=C(C)N(C)C
assigned category: F
//
compound: COc1ccccc1-c1cc(C(=O)NCCCn2ccnc2)no1
assigned category: F
//
compound: COCCCNC(=O)CSc1nc2ccc(N3CCOCC3)cc2c(=O)n1CCc1ccccc1
assigned category: F
//
compound: O=C(c1cccc2ccccc12)N1CCN(c2ccccc2F)CC1
assigned category: F
//
compound: C=C(C)Cn1c(N2CCN(CC)CC2)nc2c1c(=O)[nH]c(=O)n2C
assigned category: F
//
compound: CC(=O)NC(Cc1ccc(F)cc1)C(=O)O (configuration not stated)
assigned category: F
//
compound: Cc1ccc(Oc2ccc(N)cc2)cc1
assigned category: F
//
compound: COc1ccc(-c2nc(CS(=O)CC(=O)NCc3cccnc3)c(C)o2)cc1OC (configuration not stated)
assigned category: F
//
compound: O=C1CC2(CCCCC2)Oc2ccc(OCC(=O)N3CCOCC3)cc21
assigned category: F
//
compound: COc1ccccc1CNC(=O)C1CCN(S(C)(=O)=O)CC1
assigned category: T
//
compound: CCc1nnc(NC(=O)CSc2nnc(-c3ccncc3)n2Cc2ccccc2)s1
assigned category: F
//
compound: O=C(CC(NCCN1CCOCC1)C(=O)O)Nc1cccc(Cl)c1 (configuration not stated)
assigned category: F
//
compound: c1ccc(-n2ncc3c2ncn2c(C4CCCCC4)nnc32)cc1
assigned category: F
//
compound: CN(C(=O)COc1nnc(-c2cccs2)c(-c2cccs2)n1)c1ccccc1
assigned category: F
//
compound: O=C(c1cc(-c2ccc(O)cc2)on1)N1CCCc2ccccc21
assigned category: F
//
compound: Clc1ccc(CSc2nnc([C@@H]3CCCN3)o2)cc1
assigned category: F
//
compound: COC(=O)Cc1c(C)c2ccc(OCC(=O)NCc3ccc4c(c3)OCO4)cc2oc1=O
assigned category: F
//
compound: COc1ccc(OC)c(Nc2nc(-c3ccc(O)c(O)c3)cs2)c1
assigned category: F
//
compound: Cc1c(C(=O)N2CCCc3ccccc32)sc2nc(-c3ccccc3)cn12
assigned category: F
//
compound: COc1ccccc1CNCc1cccs1
assigned category: F
//
compound: O=C(NCc1cccnc1)c1cn(-c2ccccc2)nc1-c1cccs1
assigned category: F
//
compound: CCC1C(C#N)=C(SC)NC2=C1C(=O)CC(C)(C)C2 (configuration not stated)
assigned category: F
//
compound: COc1ccc(CCNC(=O)c2ccco2)cc1
assigned category: F
//
compound: CC(C)(C)c1cc(CN2CCN(CCC#N)CC2)cc(C(C)(C)C)c1O
assigned category: F
//
compound: CCOC(=O)c1ccc(NC(=O)CSc2nnc(COc3ccccc3OC)n2C)cc1
assigned category: F
//
compound: COc1ccc(NC(=O)CCNC(=O)Cn2ccc3ccccc3c2=O)c(OC)c1
assigned category: F
//
compound: COc1ccccc1CNC(=O)C1CCN(c2nc3ccccc3o2)CC1
assigned category: F
//
compound: COC(=O)C(C)n1cnc2c(nnn2-c2cccc(Cl)c2)c1=O (configuration not stated)
assigned category: F
//
compound: Cc1noc(C)c1CSc1nnc2ccc3ccccc3n12
assigned category: F
//
compound: COc1ccc(S(=O)(=O)N(CCCN2CCCC2=O)Cc2cc3c(C)ccc(C)c3[nH]c2=O)cc1
assigned category: F
//
compound: CC(=O)O[C@]1(C(C)=O)CC[C@H]2[C@@H]3C=C(C)C4=CC(=O)CC[C@]4(C)[C@H]3CC[C@@]21C
assigned category: F

----------
test name: blockers of serum C3 deposition on LPS – biochemical, ELISA, human serum, orthogonally pooled compounds, primary screen (AID 1235);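 further: 0% = serum in Mg-EGTA without compound and 100% = EDTA serum blank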
cond: Human serum alternative complement pathway, LPS-coated ELISA, tested in compound mixtures, at 5 µM, hits give high values
The campaign covered roughly 62,000 compounds. About 50 (0.08%) were called active. Many of the other results were omitted from the sample, so actives are more common in it than they were.
# inhibition per record follows

compound: Cc1ccc(OS(=O)Nc2cccc3nccnc23)cc1 (stereo unspecified)
units symbol: %
inhibition: 10
--
compound: O=C(NCCc1ccccn1)c1ccc(COc2ccccc2)o1
units symbol: %
inhibition: 13.5
--
compound: O=C(N1CCOCC1)N(Cc1ccccc1)c1ccccn1
units symbol: %
inhibition: -5.66
--
compound: COc1ccc(-c2nnn(CC(=O)N(CCO)C(C(=O)NC3CCCC3)c3ccc(F)cc3)n2)cc1 (stereo unspecified)
units symbol: %
inhibition: 3.14
--
compound: COC(=O)C1=C(C)NC2=C(C(=O)c3ccccc32)C1c1ccc(-c2ccc(C(=O)O)cc2)o1 (stereo unspecified)
units symbol: %
inhibition: 7.73
--
compound: COC(=O)c1oc2ccc(Br)cc2c1NC(C)=O
units symbol: %
inhibition: 11.8
--
compound: O=C(CCCN1C(=O)C2C3C=CC(C3)C2C1=O)N1CCN(c2ccccc2)CC1 (stereo unspecified)
units symbol: %
inhibition: 11.5
--
compound: CCOC(=O)N1CCN(CC(=O)c2ccc3c(c2)CCN3)CC1
units symbol: %
inhibition: 22.3
--
compound: Cc1cccc(N=C2NC(=O)CS2)c1C
units symbol: %
inhibition: 4.01
--
compound: Cc1cc(C)nc(NC(=O)C(C)N2C(=O)c3ccccc3C2=O)n1 (stereo unspecified)
units symbol: %
inhibition: 4.23
--
compound: O=C(CC1Nc2ccccc2NC1=O)Nc1ccccc1 (stereo unspecified)
units symbol: %
inhibition: -0.205
--
compound: CC(C)(O)C#Cc1ccc(C(=O)N2CCC(C(N)=O)(N3CCCCC3)CC2)cc1
units symbol: %
inhibition: 0.925
--
compound: CCOc1ccc(NC(=O)CC2NCCNC2=O)cc1 (stereo unspecified)
units symbol: %
inhibition: 2.46
--
compound: CCOc1ccc(OCC)c(NC(=O)C2CCN(S(=O)(=O)c3c(C)noc3C)CC2)c1
units symbol: %
inhibition: 4.52
--
compound: Cc1cccc(N(CC(O)CN(C)C)S(=O)(=O)c2ccccc2)c1 (stereo unspecified)
units symbol: %
inhibition: -22.7
--
compound: CCCCCCn1c(CN2CCCC(C)C2)nc2c1c(=O)n(C)c(=O)n2C (stereo unspecified)
units symbol: %
inhibition: 8.35
